Sourced from paper PMC12777568

experiment: BIC plasma pharmacokinetics, Phase 1 open-label single-dose DDI study GS-US-380-3909 (B/F/TAF 50/200/25 mg with antacid or mineral supplements); type: in vivo, human; conditions: both sexes, human, plasma, oral, BIC plasma Cmax, mean (%CV), Cohort 2 fasted; B/F/TAF 2 hours after aluminum/magnesium-containing antacid; N = 13
measuredProperty: Cmax (ng/mL)
Give just the numeric value; ng/mL need not be written.

Task: Consider the compound shown here: O=C(NCc1c(F)cc(F)cc1F)c1cn2c(c(O)c1=O)C(=O)N1[C@H]3CC[C@H](C3)O[C@@H]1C2 [BIC, bictegravir] What is its recorded Cmax?
Result: 2740
